Values were extracted from patent US9999218B2.

# Tested on: adult bed bugs
# setupConditions: […] neem oil + […] named solvent in isopropanol; 4 h dried in highly-ventilated room
experimentalReadout: Time to Max Mortality (days)
// note: answer is a bare numeric in days

Field: example entries. Status: answers known.
{"compound": "O=C(OCc1ccccc1)c1ccccc1 [Benzyl benzoate]", "quantityUnit": "days", "Time to Max Mortality": 8}
{"compound": "Cc1ccc(C=O)cc1", "quantityUnit": "days", "Time to Max Mortality": 6}
{"compound": "O=C(c1ccccc1)C1CCCCC1", "quantityUnit": "days", "Time to Max Mortality": 8}
{"compound": "Cc1cc(C(=O)O)ccc1O [4-Hydroxy-3-methyl benzoic acid]", "quantityUnit": "days", "Time to Max Mortality": 14}
{"compound": "CC(C)(O)c1ccccc1", "quantityUnit": "days", "Time to Max Mortality": 1}

# input Reported Time to Max Mortality for adult bed bugs, given Oc1ccccc1 ?
# output 1

# input Also check CCCCOc1ccccc1
# output 6

# input Also check CCCCC(=O)c1ccc(O)cc1 [4′-Hydroxyvalerophenone]
# output 14

----------
# System: adult bed bugs
# setupConditions: […] neem oil + […] named solvent in isopropanol; 4 h dried in highly-ventilated room; observed until 14 days
Binarize Max. Mortality at 70%; below is true (1), at or above is false (0).

Please review the entries below; each comes with its answer.
{"compound": "O=C(O)c1ccc(O)cc1 [4-Hydroxy benzoic acid]", "assignedCategory": "false (0)"}
{"compound": "c1ccccc1", "assignedCategory": "true (1)"}
{"compound": "O=C(OCc1ccccc1)c1ccccc1 [Benzyl benzoate]", "assignedCategory": "false (0)"}
{"compound": "Cc1ccc(C)cc1", "assignedCategory": "true (1)"}
{"compound": "CCCCCCCCCCCCO", "assignedCategory": "false (0)"}

# input Here's an entry: c1ccc(COCc2ccccc2)cc1 . Is its Max. Mortality below 70%?
# output false (0)

----------
# Tested on: adult bed bugs
# setupConditions: […] neem oil + […] named solvent in isopropanol; 4 h dried in highly-ventilated room; observed until 14 days
experimentalReadout: Max. Mortality (%)
// note: answer is a bare numeric in %

{"compound": "c1ccc(Oc2ccccc2)cc1 [Diphenyl ether]", "quantityUnit": "%", "Max. Mortality": 100}
{"compound": "CC(C)COC(=O)c1ccccc1 [Isobutyl benzoate]", "quantityUnit": "%", "Max. Mortality": 90}
{"compound": "Cc1ccc(CO)cc1C [3,4-dimethylbenzyl alcohol]", "quantityUnit": "%", "Max. Mortality": 100}
{"compound": "Cc1ccc(O)c(C=O)c1 [2-hydroxy-5-methyl benzaldehyde]", "quantityUnit": "%", "Max. Mortality": 100}

Please examine the following record next.
# input Item CC(C)CC(O)CC(C)C [2,6-Dimethyl-4-heptanol] has what recorded Max. Mortality?
# output 20

----------
# Test system: adult bed bugs
# setupConditions: […] neem oil + […] named solvent in isopropanol; 4 h dried in highly-ventilated room
Could you label it satisfied if measured Time to Max Mortality is 5 days or higher, and not satisfied otherwise?

Please review the entries below; each comes with its answer.
{"compound": "c1ccc(Oc2ccccc2)cc1 [Diphenyl ether]", "assignedCategory": "not satisfied"}
{"compound": "CC(=O)c1ccc(O)cc1 [4′-Hydroxyacetophenone]", "assignedCategory": "satisfied"}
{"compound": "Cc1ccc(CO)cc1C [3,4-dimethylbenzyl alcohol]", "assignedCategory": "satisfied"}
{"compound": "O=C(O)c1ccc(O)cc1 [4-Hydroxy benzoic acid]", "assignedCategory": "not satisfied"}
{"compound": "Cc1ccc(C)cc1 [p-Xylene]", "assignedCategory": "satisfied"}

Please find the next compound below.
# input Check the entry CCCCC(O)CC (stereo not shown) [Solution 3-Heptanol, 3-Heptanol] : does Time to Max Mortality equal or exceed 5 days?
# output satisfied

----------
# Test system: adult bed bugs
# Type: in vivo
# setupConditions: […] neem oil + […] named solvent in isopropanol; 4 h dried residue; observed until 14 days
Item-by-item account of Max. Mortality
// note: answer is a bare numeric in %

Field: example entries. Status: answers known.
{"molecule": "CC(=O)OC1CCCCC1C(C)(C)C (stereo not drawn) [2-tert-Butylcyclohexylacetate]", "experimentalReadout": "Max. Mortality", "resultValue": 100}
{"molecule": "O=Cc1ccccc1", "experimentalReadout": "Max. Mortality", "resultValue": 100}
{"molecule": "CC(C)C(=O)c1ccccc1", "experimentalReadout": "Max. Mortality", "resultValue": 100}
{"molecule": "CC(O)c1ccccc1 (stereo not drawn)", "experimentalReadout": "Max. Mortality", "resultValue": 100}
{"molecule": "OCc1ccccc1", "experimentalReadout": "Max. Mortality", "resultValue": 100}

# input Item CCCCCC(=O)c1ccccc1 has what recorded Max. Mortality?
# output 100

# input Also check CC(=O)c1ccc(C)cc1
# output 100

# input Also check CCC(=O)c1ccccc1
# output 100

# input Also check CC(C)O
# output 40

# input Also check OC1CCCCC1
# output 60

# input Also check O=C1CCCCC1
# output 50

# input Also check CCCOC(=O)c1ccc(O)cc1 [Propyl-4-hydroxybenzoate]
# output 100

# input Also check CCCCC(=O)c1ccccc1
# output 100

# input Also check CCC(=O)c1ccc(C)cc1
# output 100

# input Also check CC(=O)c1ccc(C)cc1C
# output 100

----------
# Tested on: adult bed bugs
# Type: in vivo
# setupConditions: […] neem oil + […] named solvent in isopropanol; 4 h dried residue; observed until 14 days
Item-by-item account of Max. Mortality
// note: answer is a bare numeric in %

Field: example entries. Status: answers known.
{"compound": "CC(=O)C1CCCCC1 [Methylcyclohexylketone]", "resultValue": 70}
{"compound": "CCCC(=O)c1ccccc1 [Butyrophenone]", "resultValue": 100}
{"compound": "CC(=O)c1ccc(C)c(C)c1 [3′,4′-Dimethylacetophenone]", "resultValue": 100}
{"compound": "O=C(c1ccc(O)cc1O)c1ccc(O)cc1O [2,2′-4,4′ Tetrahydroxybenzophenone]", "resultValue": 100}
{"compound": "CCOC(C)=O [Ethyl acetate]", "resultValue": 30}

Please examine the following record next.
# input Item CC(=O)c1ccccc1 [Acetophenone] has what recorded Max. Mortality?
# output 100

----------
# Tested on: adult bed bugs
# setupConditions: […] neem oil + […] named solvent in isopropanol; 4 h dried in highly-ventilated room
experimentalReadout: Time to Max Mortality (days)
// note: answer is a bare numeric in days

{"compound": "CC(=O)c1ccccc1O [2′-Hydroxyacetophenone]", "measurementTarget": "adult bed bugs", "quantityUnit": "days", "Time to Max Mortality": 1}
{"compound": "CCCCCCC(CO)CCCC (stereo not drawn)", "measurementTarget": "adult bed bugs", "quantityUnit": "days", "Time to Max Mortality": 8}

# input Item Cc1ccccc1 has what recorded Time to Max Mortality?
# output 14

# input Also check CC(C)CC(O)CC(C)C
# output 14

# input Also check CCOC(=O)c1ccccc1 [Ethyl benzoate]
# output 2

# input Also check CCCCCCCCCCCCO
# output 14

# input Also check CCCCCCCCC(CO)CCCCCC (stereo not drawn)
# output 14

# input Also check COCc1ccccc1
# output 8

# input Also check c1ccccc1
# output 14

# input Also check CCCCCCCCCO
# output 2

# input Also check Cc1ccc(O)c(C=O)c1 [2-hydroxy-5-methyl benzaldehyde]
# output 1

# input Also check CCCCCCC(C)O (stereo not drawn)
# output 2

----------
Item-by-item account of % Eclosion
# Test system: bed bug eggs
# Assay type: in vivo, Cimex lectularius L.
# setupConditions: […] neem oil + named solvent in isopropanol; 4 h dried residue; 3 weeks after infestation
// note: answer is a bare numeric in %

Field: example entries. Status: answers known.
{"compound": "CCCCCCO", "% Eclosion (%)": 0}
{"compound": "CCCCC(=O)c1ccccc1", "% Eclosion (%)": 0}
{"compound": "CCCCC(CC)CO (stereo not drawn)", "% Eclosion (%)": 0}
{"compound": "OCc1ccccc1", "% Eclosion (%)": 0}
{"compound": "O=C1CCCCC1", "% Eclosion (%)": 40}
{"compound": "CCCC(=O)c1ccccc1", "% Eclosion (%)": 0}

# input Item CCCCCC(=O)c1ccccc1 has what recorded % Eclosion?
# output 0

# input Also check O=Cc1ccccc1
# output 0

# input Also check CCCCCCCCCCO
# output 0

# input Also check OC1CCCCC1
# output 60

# input Also check CC(=O)c1ccc(C)cc1
# output 0

----------
# Tested on: adult bed bugs
# setupConditions: […] neem oil + […] named solvent in isopropanol; 4 h dried in highly-ventilated room
Item-by-item account of Time to Max Mortality
// note: answer is a bare numeric in days

Field: example entries. Status: answers known.
{"compound": "Cc1ccc(C(C)O)cc1 (stereo not drawn)", "Time to Max Mortality, days": 1}
{"compound": "CC(C)COC(=O)c1ccccc1 [Isobutyl benzoate]", "Time to Max Mortality, days": 8}

Please examine the following record next.
# input Item c1ccc(COCc2ccccc2)cc1 has what recorded Time to Max Mortality?
# output 7
